Numbers sourced from ChEMBL document CHEMBL4823310.

Target: GTPase KRas (Homo sapiens, UniProt P01116, C118S/C51S/C80L/G12C)
Sequence (P01116 whole entry G12C/C51S/C80L/C118S): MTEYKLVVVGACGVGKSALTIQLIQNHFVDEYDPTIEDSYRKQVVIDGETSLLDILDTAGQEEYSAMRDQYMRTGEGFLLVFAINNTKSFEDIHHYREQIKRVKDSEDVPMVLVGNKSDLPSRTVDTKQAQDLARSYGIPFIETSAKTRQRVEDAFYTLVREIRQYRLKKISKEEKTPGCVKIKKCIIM
Assay: Inhibition of biotinylated KRAS G12C/C51S/C80L/C118S mutant (unknown origin) pretreated for 60 mins followed by recombinant SOS addition by SOS-catalyzed nucleotide exchange-based TR-FRET analysis
reported metric: IC50 (nM)
Supply the numeric figure in nM, leaving out any unit text.

I am curious: what IC50 value has been reported for "C=CC(=O)N1C[C@H](C)N(c2nc(=O)n3c4nc(c(Cl)cc24)-c2c(F)ccc(F)c2OCCOc2ccnc(C(C)C)c2-3)C[C@H]1C" ?
1.1

Return reported IC50; argument: "C=CC(=O)N1CCN(c2nc(=O)n3c4nc(c(F)cc24)-c2c(F)cccc2OCCCCc2ccnc(C(C)C)c2-3)[C@@H](C)C1"
2.4

Look up IC50: "[2H]C1([2H])Oc2ccc(F)c(F)c2-c2nc3c(cc2Cl)c(N2C[C@@H](C)N(C(=O)C=C)C[C@@H]2C)nc(=O)n3-c2c(ccnc2C(C)C)OC1([2H])[2H]"
0.51

What value of IC50 has been reported for the following compound? "C=CC(=O)N1CCN(c2nc(=O)n3c4nc(c(Cl)cc24)-c2c(F)cccc2OCC(F)(F)CCc2ccnc(C(C)C)c2-3)[C@@H](C)C1"
0.56

Suppose we examine the compound "C=CC(=O)N1C[C@H](C)N(c2nc(=O)n3c4nc(c(Cl)cc24)-c2c(F)cccc2OCCc2ccnc(C(C)C)c2-3)C[C@H]1C" ; what IC50 value has been reported?
2.6

Fill blank: measured IC50 of the compound "C=CC(=O)N1CCN(c2nc(=O)n3c4nc(c(F)cc24)-c2c(F)cccc2OCCCc2ccnc(C(C)C)c2-3)[C@@H](C)C1" is ____.
4.3
